Assign EC50 to each entry below.
Assay: alpha-synuclein stem-loop luciferase translation blockers – H4 neuroglioma cells, luminescence, confirmation (AID 1988)
Type: functional, cell-based
Active and inactive are the calls of the source.

Query: Check the records and state EC50 for CC(=O)Nc1nc2ccccc2n1CCOc1ccccc1Cl
Reply: > 120 µM (not active)

Query: Query EC50 for COc1ccc(Cn2c(SCc3ccc(C)cc3)nc3cc(OC)c(OC)cc3c2=N)cc1Cl
Reply: > 120 µM (not active)

Query: State its EC50 for this compound: CCOC(=O)c1c(NC(=O)Cc2cccs2)sc(C(=O)N2CCCCC2)c1C
Reply: > 120 µM (not active)

Query: Give the reported value of EC50 for this record: CCOC(=O)c1cnc(-n2nc(C)cc2C)nc1NNc1cc(C)nc(-c2ccccc2)n1
Reply: 6.73 µM (active)

Query: Provide measured EC50 value, entry: O=C1C([N-]S(=O)(=O)c2cccs2)=C([n+]2ccc(CCCc3ccccc3)cc2)C(=O)c2ccccc21
Reply: 8.36 µM (active)

---

Assay: P. falciparum Dd2 growth inhibitors, dose response, SYBR Green, cherry-picked samples (AID 1159567)
Assay type: functional, cell-based
Calls of active or inactive are those of the source.
readout-kind: AC50

Query: Please report the measured AC50 for COc1ccc2c3c([nH]c2c1)[C@@H](CO)N(S(C)(=O)=O)CC31CCN(Cc2cccc(F)c2)CC1
Reply: 4.86 µM (active)

Query: Item N#C[C@@H]1[C@H](c2ccccc2/C=C/c2ccccc2)[C@H](CO)N1S(=O)(=O)c1ccc(F)cc1 : provide AC50
Reply: 6.19 µM (active)

Query: Provide measured AC50 value, entry: COc1ccc2c3c(n(C)c2c1)[C@H](CO)N(C(=O)Nc1ccc(F)cc1)CC31CCN(C)CC1
Reply: 2.67 µM (active)

Query: Write down AC50 measured for item CCCC(=O)N1CC2(C1)CN(Cc1ccc(Cl)cc1)[C@H](CO)c1[nH]c3cc(OC)ccc3c12
Reply: 6.65 µM (active)

---

Target: Oxysterols receptor LXR-beta (Homo sapiens);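 also: Cell-based luminescence dose-response assay of agonist activity at LXR, run as a confirmatory counterscreen to a daf-12 agonist screen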;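 also: HEK293 cells with Gal4-LXR fusion and GAL4-driven luciferase reporter; agonist potency from rising luciferase signal of a Gal4-LXR reporter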
Sequence (P55055 whole entry, the tested form may be a part): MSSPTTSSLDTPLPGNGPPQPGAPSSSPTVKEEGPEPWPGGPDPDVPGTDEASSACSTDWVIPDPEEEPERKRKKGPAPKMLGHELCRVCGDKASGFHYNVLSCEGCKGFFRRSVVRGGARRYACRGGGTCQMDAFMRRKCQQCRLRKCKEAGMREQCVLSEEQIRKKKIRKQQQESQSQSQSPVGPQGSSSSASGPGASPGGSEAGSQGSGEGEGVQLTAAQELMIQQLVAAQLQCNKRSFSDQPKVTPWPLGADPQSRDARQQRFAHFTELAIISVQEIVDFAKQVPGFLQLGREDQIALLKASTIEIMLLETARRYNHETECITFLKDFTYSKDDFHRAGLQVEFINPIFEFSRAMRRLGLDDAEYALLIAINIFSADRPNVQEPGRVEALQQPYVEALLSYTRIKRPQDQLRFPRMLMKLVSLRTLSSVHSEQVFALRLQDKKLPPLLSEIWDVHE
Assay type: functional, cell-based
Activity calls are given as the source filed them.
readout-kind: EC50

Query: For the compound c1ccc(N2CC3COc4ccccc4C3=N2)cc1 (stereo not given) , give its measured EC50 value.
Reply: > 67.4 µM (inactive)

Query: Find the measured EC50 of CC(C)NC1=NN=C(c2cccs2)CS1 and report it.
Reply: > 67.6 µM (inactive)

Query: Respond only with EC50 recorded for COc1ccccc1-c1nc(-c2ccccn2)no1
Reply: > 67.5 µM (inactive)

Query: Write down EC50 measured for item CN(C)c1ccc(-c2cc3ccccc3c(=O)o2)cc1
Reply: > 67.6 µM (inactive)

Query: Give me measured EC50, please, for this compound: Cc1oc(-c2ccc(-c3ccccc3)cc2)nc1CN(CCO)C(C)C
Reply: > 67.5 µM (inactive)

---

Record form. Attribute: IC50. Fill in for each entry.
Biological target: E3 ubiquitin-protein ligase XIAP (Homo sapiens)
Sequence (P98170 whole entry): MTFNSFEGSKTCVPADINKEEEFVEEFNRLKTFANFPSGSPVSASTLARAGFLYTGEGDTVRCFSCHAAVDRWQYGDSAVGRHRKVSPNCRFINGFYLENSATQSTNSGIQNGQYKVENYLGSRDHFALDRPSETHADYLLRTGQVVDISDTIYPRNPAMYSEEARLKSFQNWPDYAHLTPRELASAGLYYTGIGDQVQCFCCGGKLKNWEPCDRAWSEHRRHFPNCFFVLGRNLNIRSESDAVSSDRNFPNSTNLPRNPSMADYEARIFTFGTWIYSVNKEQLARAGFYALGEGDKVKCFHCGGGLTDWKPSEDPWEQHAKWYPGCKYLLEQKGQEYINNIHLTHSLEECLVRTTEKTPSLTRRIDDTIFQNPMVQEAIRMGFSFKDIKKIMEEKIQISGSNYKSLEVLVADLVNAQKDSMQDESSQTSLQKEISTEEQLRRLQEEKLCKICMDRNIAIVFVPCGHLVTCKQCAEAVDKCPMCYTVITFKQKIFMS
Assay: Counter Screen using XIAP-Bir3 for Chemical Antagonists of Bir1/2 domains of IAP-family anti-apoptotic proteins. [Related pubchem assays (depositor defined):AID1018, AID1449, AID1514, AID1638, AID1749, AID1750, AID488957, AID488963]
Activity calls are given as the source filed them.

Query: Look up E3 ubiquitin-protein ligase XIAP (Homo sapiens) data: IC50 of CCN(CC)CCNC(=O)/C(=C\c1cccn1C)NC(=O)c1cccs1 , then report it.
Reply: > 100 µM (inactive)

Query: Give IC50; test system E3 ubiquitin-protein ligase XIAP (Homo sapiens); compound O=C(c1ccc(S(=O)(=O)NCC2CCCO2)cc1)N1CCN(c2cccc(Cl)c2)CC1 (centres undefined)
Reply: > 100 µM (inactive)

Query: Output reported IC50 of the compound COc1ccc(S(=O)(=O)N2CCCC2)c(C)c1C on E3 ubiquitin-protein ligase XIAP (Homo sapiens).
Reply: > 100 µM (inactive)

Query: Name the recorded IC50 of O=c1ccc2c(-c3ccccc3)c3ccc(O)cc3oc-2c1 , assay system E3 ubiquitin-protein ligase XIAP (Homo sapiens).
Reply: > 20 µM (inactive)
